# key: entry, value: melting point
Metric: melting point

>>> print(df.to_string())
                               smiles_string    result
 0  Cc1c2n(c3c(-c4ccc(F)cc4F)cc(F)cc13)CCNC2=O    204 °C
 1  Cc1c2n(c3c(-c4cnc(N)nc4)cc(Cl)cc13)CCNC2=O    316 °C
 2  Cc1c2n(c3c(-c4ccc(F)nc4)cc(C#N)cc13)CCNC2=O    272 °C
 3  Cc1c2n(c3c(-c4ccc(Cl)cc4Cl)cc(F)cc13)CCNC2=O    214 °C
 4  Cc1c2n(c3c(-c4ccc(N)nc4)cc(C#N)cc13)CCNC2=O    332 °C
 5  Cc1c2n(c3c(-c4ccc(C(C)(C)C)cc4)cc(C#N)cc13)CCNC2=O    292 °C
 6  O=C1NCCn2c1cc1c(F)c(F)cc(-c3ccc(F)c(F)c3)c12  317.5 °C
 7  N#Cc1cc(-c2ccc(F)nc2)c2c(c1)cc1n2CCNC1=O    268 °C
 8   COc1ccc(-c2cc(C)cc3cc4n(c23)CCNC4=O)cc1    245 °C
 9  N#Cc1cc(-c2ccc(Cl)cc2)c2c(c1)cc1n2CCCNC1=O  245.5 °C
10    N#Cc1cc(-c2ccccc2)c2c(c1)cc1n2CCCNC1=O  237.5 °C
11  Cc1c2n(c3c(-c4cccc(F)c4)cc(C#N)cc13)CCNC2=O    226 °C
12  COc1ccc(-c2c(F)c(F)cc3cc4n(c23)CCCNC4=O)cc1  182.5 °C
13  O=C1NCCn2c1cc1cc(F)c(F)c(-c3ccc(F)c(F)c3)c12    305 °C
14  Cc1ccc(-c2cc(F)cc3cc4n(c23)[C@H](C)CNC4=O)cc1  294.5 °C
15  Cc1c2n(c3c(-c4ccc(Cl)cc4)cc(F)cc13)CCNC2=O  209.5 °C
16  Cc1c2n(c3c(-c4ccnc(F)c4)cc(C#N)cc13)CCNC2=O    256 °C
17  O=C1NCCCn2c1cc1cc(F)c(F)c(-c3ccc(F)c(F)c3)c12    225 °C
18  Cc1cc(-c2cc(C#N)cc3cc4n(c23)CCNC4=O)ccc1F    290 °C
19  Cc1c2n(c3c(-c4ccc(C(C)C)cc4)cc(Cl)cc13)CCNC2=O  194.5 °C
20  Cc1c2n(c3c(-c4ccc(OC(F)(F)F)cc4)cc(Cl)cc13)CCNC2=O    212 °C
21  N#Cc1cc(-c2ccc(N)nc2)c2c(c1)cc1n2CCCNC1=O  314.5 °C
22  COc1cc(-c2ccc(Cl)cc2)c2c(c1)cc1n2CCNC1=O    246 °C
23  Cc1c2n(c3c(-c4ccc(Cl)c(Cl)c4)cc(C#N)cc13)CCCNC2=O    254 °C
24  O=C1NCCn2c1cc1cc(F)c(F)c(-c3ccc(F)cc3)c12  286.5 °C
25  N#Cc1cc(-c2cc(F)c(F)c(F)c2)c2c(c1)cc1n2CCNC1=O  304.5 °C
26   O=C1NCCCn2c1cc1cc(F)cc(-c3ccc(F)cc3)c12  239.5 °C
27  N#Cc1cc(-c2ccc(F)c(F)c2F)c2c(c1)cc1n2CCNC1=O    294 °C
28  Cc1c2n(c3c(-c4ccc(F)c(F)c4F)cc(C#N)cc13)CCNC2=O    238 °C
29  Cc1c2n(c3c(-c4ccc5c(c4)CCO5)cc(F)cc13)CCNC2=O    251 °C
30  Cc1c2n(c3c(-c4ccc(F)c(F)c4)cc(Cl)cc13)CCCNC2=O    254 °C
31  N#Cc1cc(-c2cccc(Cl)c2)c2c(c1)cc1n2CCNC1=O  241.5 °C
32  Cc1cc(-c2ccc(F)c(F)c2)c2c(c1)cc1n2CCNC1=O  249.5 °C
33   Cc1c2n(c3c(-c4ccncc4)cc(Cl)cc13)CCNC2=O    295 °C
34  Cc1c2n(c3c(-c4ccnc(F)c4)cc(F)cc13)CCNC2=O    240 °C
35   Cc1cc(-c2ccc(F)cc2)c2c(c1)cc1n2CCCNC1=O  234.5 °C
36     N#Cc1cc(-c2ccncc2)c2c(c1)cc1n2CCNC1=O  315.5 °C

Hey, just so you know, these numbers are from patent US9284321B2.
